Biological target: T1, HCV Core1-169 (HCV-1, UniProt P26664 1-169)
T1 construct: also called Solid Phase HCV Core
T1 sequence: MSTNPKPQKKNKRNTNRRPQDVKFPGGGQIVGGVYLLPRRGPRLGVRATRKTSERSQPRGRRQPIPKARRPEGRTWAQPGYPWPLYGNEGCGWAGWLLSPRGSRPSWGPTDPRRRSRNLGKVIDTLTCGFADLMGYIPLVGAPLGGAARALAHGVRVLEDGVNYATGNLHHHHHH
Assay: sandwich EIA, capture 208B-395-334
Readout label: OD492 (OD)
Lab book: enter the figure in OD, no units written.

Guide cases for OD492, answers given:
HCV 208A-207 (antibody, V domains shown) VH: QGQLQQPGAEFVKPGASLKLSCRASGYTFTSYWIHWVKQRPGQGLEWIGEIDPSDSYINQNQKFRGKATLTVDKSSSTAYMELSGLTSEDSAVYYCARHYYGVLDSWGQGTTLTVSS VL: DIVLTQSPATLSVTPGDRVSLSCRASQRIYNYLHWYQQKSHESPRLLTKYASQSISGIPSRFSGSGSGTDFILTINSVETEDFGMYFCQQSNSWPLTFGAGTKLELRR
0.37
HCV 208A-692 (antibody, V domains shown) VH: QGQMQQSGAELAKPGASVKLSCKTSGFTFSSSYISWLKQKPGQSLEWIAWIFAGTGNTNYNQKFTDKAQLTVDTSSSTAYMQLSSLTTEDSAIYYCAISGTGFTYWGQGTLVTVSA VL: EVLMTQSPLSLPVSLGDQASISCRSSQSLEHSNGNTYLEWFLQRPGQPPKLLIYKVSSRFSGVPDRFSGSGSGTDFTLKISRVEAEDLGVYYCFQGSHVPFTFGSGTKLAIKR
0.44
HCV 208B-395 (antibody, V domains shown) VH: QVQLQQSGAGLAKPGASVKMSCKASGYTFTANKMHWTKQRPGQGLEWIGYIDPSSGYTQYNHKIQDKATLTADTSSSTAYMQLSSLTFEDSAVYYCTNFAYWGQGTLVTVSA VL: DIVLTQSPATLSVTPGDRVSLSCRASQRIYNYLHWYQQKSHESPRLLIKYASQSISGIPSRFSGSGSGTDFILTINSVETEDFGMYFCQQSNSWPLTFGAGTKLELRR
0.23

For this binder ( HCV 208B-1096 (antibody, V domains shown) VH: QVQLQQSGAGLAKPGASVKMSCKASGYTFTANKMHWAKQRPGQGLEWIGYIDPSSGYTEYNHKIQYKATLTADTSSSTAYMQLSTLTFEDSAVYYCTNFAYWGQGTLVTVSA VL: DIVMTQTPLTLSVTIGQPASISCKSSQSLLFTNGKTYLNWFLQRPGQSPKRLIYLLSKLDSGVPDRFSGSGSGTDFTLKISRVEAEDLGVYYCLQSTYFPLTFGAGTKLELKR ), measured OD492 is 0.2

For this binder ( HCV 208B-612 (antibody, V domains shown) VH: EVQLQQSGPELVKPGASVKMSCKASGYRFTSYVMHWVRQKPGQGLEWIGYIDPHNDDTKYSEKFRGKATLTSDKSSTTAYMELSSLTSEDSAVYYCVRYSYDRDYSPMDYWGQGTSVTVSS VL: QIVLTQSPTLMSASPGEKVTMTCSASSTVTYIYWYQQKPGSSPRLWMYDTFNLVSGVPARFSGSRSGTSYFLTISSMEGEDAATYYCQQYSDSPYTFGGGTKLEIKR ), measured OD492 is 0.83
